biological target: rat hippocampal α7 nAChR (endogenous, CA1 stratum radiatum interneurons) (Rattus norvegicus); construct: native full-length homopentamer in rat hippocampal CA1 interneurons in brain slices; assay: whole-cell voltage clamp, choline-induced current, rat CA1 interneurons in slice; details: 10 mM choline puffs; antagonist; -70 mV; pH 7.4; room temperature; approximate, read from concentration-response curve; voltage-independent; native receptor, α7β2 possibly mixed; read-out: 50% inhibition of ICh
Sequence (Q05941 23-502): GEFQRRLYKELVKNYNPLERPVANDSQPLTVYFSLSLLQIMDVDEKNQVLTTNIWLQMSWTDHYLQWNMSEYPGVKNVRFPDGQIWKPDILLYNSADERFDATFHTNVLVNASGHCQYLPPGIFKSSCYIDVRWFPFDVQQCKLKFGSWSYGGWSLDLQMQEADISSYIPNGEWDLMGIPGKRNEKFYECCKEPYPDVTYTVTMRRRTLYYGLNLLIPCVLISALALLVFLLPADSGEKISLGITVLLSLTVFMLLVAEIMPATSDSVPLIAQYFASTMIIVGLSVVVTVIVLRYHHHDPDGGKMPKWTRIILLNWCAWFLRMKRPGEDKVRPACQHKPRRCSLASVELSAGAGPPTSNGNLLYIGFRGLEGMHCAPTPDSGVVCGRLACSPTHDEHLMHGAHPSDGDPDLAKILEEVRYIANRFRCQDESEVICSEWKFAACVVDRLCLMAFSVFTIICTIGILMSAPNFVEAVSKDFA
pIC50: −log10 of the molar value.

{"columns": ["COMPOUND", "pIC50"],
 "data": [
  ["CCCCCCCOc1ccc(OCC[N+]2(C)CCCCC2)cc1 [12a]", "~5.30"]
]}
